assay: Clinical pharmacokinetics of treosulfan in plasma and urine; assay type: in vivo, human; conditions: human, plasma, intravenous, 14 g/m^2, AUC, day −4, patients
MEASURE: AUC (µg·h/mL)
Answers are plain numbers, in µg·h/mL.

Q: Quick check: AUC of CS(=O)(=O)OC[C@H](O)[C@@H](O)COS(C)(=O)=O [treosulfan, L‐threitol‐1,4‐bis‐methanesulfonate] ?
Ans: 1450

----------
biological target: P-gp (Homo sapiens)
Sequence (P08183 whole entry): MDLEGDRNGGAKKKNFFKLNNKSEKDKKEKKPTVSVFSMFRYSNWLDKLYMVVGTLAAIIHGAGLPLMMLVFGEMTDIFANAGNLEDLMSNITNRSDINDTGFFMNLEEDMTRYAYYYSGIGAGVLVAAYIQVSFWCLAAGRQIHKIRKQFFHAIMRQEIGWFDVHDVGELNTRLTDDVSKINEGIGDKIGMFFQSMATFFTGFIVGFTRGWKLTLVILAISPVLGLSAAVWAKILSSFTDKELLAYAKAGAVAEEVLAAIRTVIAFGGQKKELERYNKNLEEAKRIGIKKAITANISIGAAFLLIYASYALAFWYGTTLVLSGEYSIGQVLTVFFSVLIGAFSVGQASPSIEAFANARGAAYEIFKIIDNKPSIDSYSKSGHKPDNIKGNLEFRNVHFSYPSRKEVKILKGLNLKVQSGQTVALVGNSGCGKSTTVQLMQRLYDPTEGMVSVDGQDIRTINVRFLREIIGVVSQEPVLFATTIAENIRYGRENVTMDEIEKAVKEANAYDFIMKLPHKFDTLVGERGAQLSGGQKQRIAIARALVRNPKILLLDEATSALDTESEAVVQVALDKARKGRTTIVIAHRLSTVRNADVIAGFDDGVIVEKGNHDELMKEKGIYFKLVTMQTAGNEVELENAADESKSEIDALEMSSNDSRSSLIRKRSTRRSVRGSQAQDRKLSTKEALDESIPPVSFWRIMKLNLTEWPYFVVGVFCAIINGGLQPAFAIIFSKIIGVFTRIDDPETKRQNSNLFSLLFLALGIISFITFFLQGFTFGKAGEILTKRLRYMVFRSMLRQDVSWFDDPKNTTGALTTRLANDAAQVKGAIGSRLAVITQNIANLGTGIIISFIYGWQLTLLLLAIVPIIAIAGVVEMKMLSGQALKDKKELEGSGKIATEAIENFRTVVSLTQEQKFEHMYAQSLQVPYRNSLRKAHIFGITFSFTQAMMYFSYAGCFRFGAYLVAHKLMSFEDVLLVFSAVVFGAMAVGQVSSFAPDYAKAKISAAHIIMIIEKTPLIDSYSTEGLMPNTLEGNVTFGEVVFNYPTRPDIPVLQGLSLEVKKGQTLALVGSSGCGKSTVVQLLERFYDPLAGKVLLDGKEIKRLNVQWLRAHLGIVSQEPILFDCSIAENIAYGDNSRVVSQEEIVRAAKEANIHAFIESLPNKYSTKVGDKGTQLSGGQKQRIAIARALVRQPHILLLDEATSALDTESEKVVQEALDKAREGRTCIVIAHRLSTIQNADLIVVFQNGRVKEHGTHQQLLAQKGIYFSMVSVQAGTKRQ
MEASURE: pKi
Numbers only, as −log10 of the molar value.

Q: What does the record list as pKi for CS(=O)(=O)OC[C@H](O)[C@@H](O)COS(C)(=O)=O [treosulfan, L‐threitol‐1,4‐bis‐methanesulfonate] ?
Ans: 2.75
